Target: human prostanoid EP1 receptor (Homo sapiens, UniProt P34995)
Construct: expressed in transfected cells; host or cells: CHO-K1 cells, membrane fraction
Sequence (P34995 whole entry): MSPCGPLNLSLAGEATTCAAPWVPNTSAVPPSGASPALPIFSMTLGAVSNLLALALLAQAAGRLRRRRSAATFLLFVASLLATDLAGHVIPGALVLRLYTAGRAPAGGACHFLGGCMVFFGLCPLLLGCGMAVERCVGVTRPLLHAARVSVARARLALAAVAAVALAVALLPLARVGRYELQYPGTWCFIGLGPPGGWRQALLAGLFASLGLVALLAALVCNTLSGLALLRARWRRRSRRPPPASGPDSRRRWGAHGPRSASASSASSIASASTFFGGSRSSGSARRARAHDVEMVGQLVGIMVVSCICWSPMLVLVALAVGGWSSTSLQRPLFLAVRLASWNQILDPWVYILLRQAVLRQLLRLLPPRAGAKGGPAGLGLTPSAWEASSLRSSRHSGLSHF
Test: binding assay for the human prostanoid EP1 receptor (competition with [3H]-PGE2)
Conditions: [3H]-PGE2 competition, CHO-K1 cell membranes expressing human EP1; averages of a number of experiments; read-out: pIC50 value (converted)
Structures can show the parent of a compound that is named as a salt.
Kindly supply the reported IC50 values for the records listed here.

q: State, in one line, measured IC50 of CC(C)Cn1cc(-c2nc(C(=O)Nc3cccnc3)co2)c2cc(Cl)ccc21 [Example 5]
a: ≤ 316 nM

q: Tell me measured IC50 for O=C(NN1CCOCC1)c1coc(-c2cn(CC3CC3)c3ccc(Cl)cc23)n1 [Example 2] please.
a: ≤ 316 nM

q: Read off the recorded IC50 for CC(C)Cn1cc(-c2nc(C(N)=O)co2)c2cc(Cl)ccc21 [Example 8]
a: ≤ 316 nM

q: Give the measured IC50 for CC(C)Cn1cc(-c2nc(-c3nc4ccc(CN5CCCC5)cc4[nH]3)co2)c2cc(Cl)ccc21 [Example 13, dihydrochloride]
a: ≤ 316 nM

q: Answer with reported IC50 of CC(C)Cn1cc(-c2nc(-c3nc4ccc(CN5CCCCC5)cc4[nH]3)co2)c2cc(Cl)ccc21 [Example 12, dihydrochloride]
a: ≤ 316 nM

q: Fill in IC50 for record CC(C)Cn1cc(-c2nc(C(=O)NCC3CCOCC3)co2)c2cc(Cl)ccc21 [Example 7]
a: ≤ 316 nM

q: Identify measured IC50 associated with CC(C)Cn1cc(-c2nc(-c3nc4ncccc4[nH]3)co2)c2cc(Cl)ccc21 [Example 10]
a: ≤ 316 nM

q: Given CC(C)Cn1cc(-c2nc(-c3nc4cc(CO)ccc4[nH]3)co2)c2cc(Cl)ccc21 [Example 11] , respond with its IC50.
a: ≤ 316 nM

q: Tell me its IC50 given O=C(c1coc(-c2cn(C3CCCC3)c3ccc(Cl)cc23)n1)N1CCOCC1 [Example 4] as the entry.
a: ≤ 1000 nM

q: Input O=C(NN1CCOCC1)c1coc(-c2cn(C3CCCC3)c3ccc(Cl)cc23)n1 [Example 3] , output reported IC50.
a: ≤ 316 nM

q: # return recorded IC50 for input CC(C)Cn1cc(-c2nc(-c3nc4ccccc4[nH]3)co2)c2cc(Cl)ccc21 [Example 9, hydrochloride]
a: ≤ 316 nM

q: For the molecule CCNCc1ccc2nc(-c3coc(-c4cn(CC(C)C)c5ccc(Cl)cc45)n3)[nH]c2c1 [Example 14, dihydrochloride] , give its reported IC50.
a: ≤ 1000 nM

q: Output IC50 of O=C(NC1CCOCC1)c1coc(-c2cn(CC3CC3)c3ccc(Cl)cc23)n1 [Example 1]
a: ≤ 1000 nM

// data source = patent US20100004240A1
